- target: UniProtKB Q9HBH9
- Sequence (Q9HBH9 whole entry): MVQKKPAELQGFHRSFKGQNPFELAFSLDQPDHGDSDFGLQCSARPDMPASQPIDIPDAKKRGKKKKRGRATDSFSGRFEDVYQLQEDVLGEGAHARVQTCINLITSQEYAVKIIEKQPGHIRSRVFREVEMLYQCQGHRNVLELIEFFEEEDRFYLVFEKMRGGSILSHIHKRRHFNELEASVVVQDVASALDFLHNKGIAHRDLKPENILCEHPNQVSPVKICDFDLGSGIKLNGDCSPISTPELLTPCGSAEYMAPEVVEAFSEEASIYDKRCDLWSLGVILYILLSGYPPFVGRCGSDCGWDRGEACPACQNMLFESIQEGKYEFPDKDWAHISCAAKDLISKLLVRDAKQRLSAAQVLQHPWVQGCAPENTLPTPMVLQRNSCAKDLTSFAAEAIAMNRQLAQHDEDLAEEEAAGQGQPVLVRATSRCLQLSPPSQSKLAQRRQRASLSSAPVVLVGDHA
- test: MNK2a in vitro kinase assay (Assay 2), ADP-Glo
- Type: biochemical
- test.parameters: assay 2; read-out: MNK2 IC50
endpoint.name: IC50

Would you please look over these solved cases?
[
  {
    "compound": "CS(C)(=O)=Nc1cc(Cl)c2c(Nc3ccc(Cl)nc3O[C@H]3COC[C@@H]3O)ncnc2c1",
    "IC50": "4 nM"
  },
  {
    "compound": "CO[C@@H]1CN(C(=O)OCc2ccccc2)C[C@H]1Oc1ncccc1Nc1ncnc2cc(N=S3(=O)CCCC3)cc(C)c12",
    "IC50": "82 nM"
  },
  {
    "compound": "CS(C)(=O)=Nc1cc(C(F)(F)F)c2c(Nc3ccc(F)cc3O[C@H]3COC[C@@H]3O)ncnc2c1",
    "IC50": "4 nM"
  },
  {
    "compound": "CO[C@H]1COC[C@H]1Oc1cc(F)ccc1Nc1ncnc2cc(N=S(C)(C)=O)cc(C)c12",
    "IC50": "7 nM"
  }
]

Kindly give each listed record's IC50.
1. Cc1cc(N=S(C)(C)=O)cc2ncnc(Nc3ccc(Cl)nc3O[C@@H]3COC[C@H]3O)c12
2. CO[C@@H]1CN(C)C[C@H]1Oc1cc(F)ccc1Nc1ncnc2cc(N=S(C)(C)=O)cc(C)c12
3. Cc1cc(N=S2(=O)CCCC2)cc2ncnc(Nc3ccc(F)cc3O[C@@H]3COC[C@H]3F)c12 (racemic)
4. Cc1cc(N=S(C)(C)=O)cc2ncnc(Nc3ccc(F)cc3O[C@H]3COC[C@H]3OCC3CC3)c12 (racemic)
5. COc1cc(N=S2(=O)CCC(C)C2)cc2ncnc(Nc3ccc(F)cc3O[C@H]3COC[C@@H]3O)c12 (some centres unmarked)

Output line:
["7 nM", "54 nM", "6 nM", "6 nM", "4 nM"]
